Measured values drawn from paper PMC9482650 for this set.

For each record, write down the corresponding pKd.
tested.target: MAGI2_2, Q86UL8
Sequence (Q86UL8 410-522): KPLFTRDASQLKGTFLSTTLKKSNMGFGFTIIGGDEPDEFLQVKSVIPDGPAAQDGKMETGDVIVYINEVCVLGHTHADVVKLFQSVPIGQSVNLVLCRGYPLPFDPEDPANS
assay.overview: holdup assay
Parameters: key: below the threshold = too weak to quantify, mostly under pKd 3.1 to 4
reported.conditions: plain residues with an end cap or a label only (N-terminal biotin on a linker: ttds)
Answers are plain numbers.

PPRQRSETQV [HPV82-E6, Q9IR59]    5.89

Shift focus to the following entry.
Requested field: pKd. Item: SRSRRRETAL [HPV33-E6, P06427] 5.31
